MEASUREMENT_DESCRIPTION: Human Hepatocyte Stability (Test D)
Format: in vitro ADME
CONDITION_LABEL: human, cryopreserved pooled human hepatocytes (LiverPool 10-Donor), geometric mean if run multiple times
MEASURE_NAME: hepatocyte CLint at 1 µM (µL/min/1e6 cells)

In: Which hepatocyte CLint at 1 µM value is on record for CC1(CNC(=O)[C@H]2[C@@H]3CC[C@@H](C3)[C@H]2NC(=O)c2cc(O[C@H]3CC[C@@](C)(C(=O)O)CC3)c(F)cc2OC(F)F)CCC1 ?
Out: 26

a: COc1cc(F)c(-c2ccc(C(=O)O)cc2)cc1C(=O)N[C@H]1[C@@H]2CC[C@@H](C2)[C@H]1C(=O)Nc1ccc(F)c(C(F)(F)F)c1 (single isomer, unassigned)
b: COc1cc(F)c(O[C@H]2CC[C@@H](C(=O)O)CC2)cc1C(=O)N[C@@H]1CC(F)(F)C[C@@H]1C(=O)Nc1ccc(F)c(C(F)(F)F)c1 (racemic)
c: COc1cc(F)c(O[C@H]2CC[C@@](C)(C(=O)O)CC2)cc1C(=O)N[C@@H]1[C@H]2CC[C@H](C2)[C@@H]1C(=O)N[C@@H]1CCCN(S(=O)(=O)C(F)(F)F)C1
In: Sort ascending by hepatocyte CLint at 1 µM. Answer by listing the labels in the order asked for.
Out: b, c, a

* * *

MEASUREMENT_DESCRIPTION: Solubility (Test F)
Type: physicochemical
CONDITION_LABEL: arithmetic mean if run multiple times
MEASURE_NAME: solubility (µM)

As a guide, the following entries are already answered.
In: Which solubility value is on record for COc1cc(F)c(-c2ccc(C(=O)O)cc2)cc1C(=O)N[C@H]1[C@@H](C(=O)Nc2ccc(F)c(S(=O)(=O)C(F)(F)F)c2)[C@@H]2C=C[C@H]1C2 (racemic) ?
Out: 640

In: Could you do the same for COc1cc(F)c(O[C@H]2CC[C@@H](C(=O)O)CC2)cc1C(=O)N[C@@H]1[C@H]2CC[C@H](C2)[C@@H]1C(=O)Nc1cccc(OC(F)F)c1 , please?
Out: 860

a: COc1cc(-c2cc(C(=O)N[C@H]3[C@@H](C(=O)Nc4cccc(S(=O)(=O)C(F)(F)F)c4)[C@@H]4C=C[C@H]3C4)c(OC)cc2F)ccc1C(=O)O (racemic)
b: COc1cc(F)c(O[C@H]2CC[C@@H](C(=O)O)CC2)cc1C(=O)N[C@H]1[C@@H](C(=O)Nc2ccc(F)c(C(F)(F)F)c2)[C@H]2CC[C@@H]1O2
In: Parameter metric = solubility. Return the lower-valued option from a and b . Mark your selection by writing its label.
Out: b
(b: 24 µM, a: 870 µM)

* * *

MEASUREMENT_DESCRIPTION: Human Liver Microsomal Stability (Test C)
Format: in vitro ADME
CONDITION_LABEL: human, liver microsomes
MEASURE_NAME: microsomal CLint (µL/min/mg)

As a guide, the following entries are already answered.
In: Which microsomal CLint value is on record for COc1cc(F)c(O[C@H]2CC[C@@H](C(=O)O)CC2)cc1C(=O)N[C@H]1[C@@H](C(=O)Nc2ccc(F)c(S(F)(F)(F)(F)F)c2)[C@@H]2C=C[C@H]1C2 [Example 488] ?
Out: 23

In: Could you do the same for COc1cc(F)c(O[C@H]2CC[C@@H](C(=O)O)CC2)cc1C(=O)N[C@@H]1[C@H]2CC[C@H](C2)[C@@H]1C(=O)NC(C)C [Example 8] , please?
Out: 1.7

In: Could you do the same for COc1cc(F)c(O[C@H]2CC[C@@H](C(=O)O)CC2)cc1C(=O)N[C@@H]1[C@H]2CC[C@H](C2)[C@@H]1C(=O)Nc1cccc(S(=O)(=O)C(F)(F)F)c1 [Example 491] , please?
Out: 42

A: COc1cc(F)c(O[C@H]2CC[C@@](C)(C(=O)O)CC2)cc1C(=O)N[C@@H]1[C@H]2CC[C@H](C2)[C@@H]1C(=O)N[C@H](C)C(C)(C)C [Example 36]
B: COc1cc(C#N)c(O[C@H]2CC[C@@](C)(C(=O)O)CC2)cc1C(=O)N[C@@H]1[C@H]2CC[C@H](C2)[C@@H]1C(=O)NC12CC3C[C@H](C1)C[C@H](C3)C2 [Example 81]
In: Lab note: record which item had the higher microsomal CLint, A or B . Mark your selection by writing its label.
Out: B
